growth inhibition values by entry
# Test system: DIPGX7 (H3.3 K27M diffuse intrinsic pontine glioma line)
# assayName: growth inhibition (% activity, log2 RLU normalised to DMSO / staurosporine); higher = more growth inhibition
# conditionContext: 33 µM
All answers are understood in %, so give the number only.

// known answers, use as guide
compound	targetUnderTest	growth inhibition (%)
C[C@@H](O)[C@H]1C(=O)N2C(C(=O)O)=C(S[C@@H]3CN[C@H](CNS(N)(=O)=O)C3)[C@H](C)[C@H]12	DIPGX7	3.79
O=c1[nH]c(=O)n(C2CCCO2)cc1F (centres undefined)	DIPGX7	-0.536
CN[C@@H]1[C@H](O[C@H]2[C@H](O[C@H]3[C@H](O)[C@@H](O)[C@H](N=C(N)N)[C@@H](O)[C@@H]3N=C(N)N)O[C@@H](C)[C@]2(O)C=O)O[C@@H](CO)[C@H](O)[C@H]1O	DIPGX7	0.411
CC(C)(Oc1ccc(Cl)cc1)C(=O)O	DIPGX7	-0.722
C[C@]12C=CC(=O)C=C1CC[C@@H]1[C@@H]2C(=O)C[C@@]2(C)[C@H]1CC[C@]2(O)C(=O)CO	DIPGX7	-0.368

O=C1O[C@H]([C@@H](O)CO)C([O-])=C1O.[Na+] has a reported growth inhibition of -0.532

CNCCc1ccccn1 has a reported growth inhibition of 1.21

====

growth inhibition values by entry
# Tested on: SUDIPGVI (diffuse intrinsic pontine glioma line)
# assayName: growth inhibition (% activity, log2 RLU normalised to DMSO / staurosporine); higher = more growth inhibition
# conditionContext: 33 µM
Answers without a unit are incomplete; give the number and then its unit.

compound	result
O=C1C(=O)c2ccccc2C(O)=C1C1CCC(c2ccc(Cl)cc2)CC1 (stereo unspecified)	2.48%
CCCc1ncc(C[n+]2ccccc2C)c(N)n1	-5.24%
O=C(O)c1cc(=O)c2ccccc2o1	2.48%

I looked up COc1nc(N)nc2c1ncn2[C@@H]1O[C@H](CO)[C@@H](O)[C@@H]1O and its growth inhibition for SUDIPGVI was 0.545%

I looked up C=C1/C(=C\C=C2/CCC[C@]3(C)[C@@H]([C@H](C)CCCC(C)(C)O)CC[C@@H]23)C[C@@H](O)C[C@@H]1O and its growth inhibition for SUDIPGVI was 2.83%

I looked up CNCC[C@H](Oc1cccc2ccccc12)c1cccs1 and its growth inhibition for SUDIPGVI was 4.44%

I looked up Cc1ccnc(NS(=O)(=O)c2ccc(N)cc2)n1 and its growth inhibition for SUDIPGVI was 0.117%

I looked up c1ccc2c(CC3=NCCN3)cccc2c1 and its growth inhibition for SUDIPGVI was 3.03%

I looked up CC(c1cc2ccccc2s1)N(O)C(N)=O (stereo unspecified) and its growth inhibition for SUDIPGVI was -1.81%

I looked up COc1ccc2c(c1)c(CC(=O)O)c(C)n2C(=O)c1ccc(Cl)cc1 and its growth inhibition for SUDIPGVI was -7.35%

I looked up CC[C@H](C)C(=O)O[C@H]1C[C@@H](C)C=C2C=C[C@H](C)[C@H](CC[C@@H]3C[C@@H](O)CC(=O)O3)[C@H]21 and its growth inhibition for SUDIPGVI was -6.1%

I looked up O=C(O)CCc1nc(-c2ccccc2)c(-c2ccccc2)o1 and its growth inhibition for SUDIPGVI was 0.464%

====

# Tested on: DIPGX29 (H3.3 K27M diffuse intrinsic pontine glioma line)
# assayName: growth inhibition (% activity, log2 RLU normalised to DMSO / staurosporine); higher = more growth inhibition
# conditionContext: 33 µM
growth inhibition values by entry
All answers are understood in %, so give the number only.

molecule	growth inhibition [%]
CCCNC(C)C(=O)Nc1ccccc1C (stereo not given)	-1.66
C[C@@H](O)[C@H]1C(=O)N2C(C(=O)O)=C(S[C@@H]3CN[C@H](CNS(N)(=O)=O)C3)[C@H](C)[C@H]12	0.9
CC(C)NCC(O)c1ccc(NS(C)(=O)=O)cc1 (stereo not given)	-1.59
N#C[C@@H]1CCCN1C(=O)CNC12CC3CC(CC(O)(C3)C1)C2	-0.11
CC(=O)[C@H]1CC[C@H]2[C@@H]3CCC4=CC(=O)CC[C@]4(C)[C@H]3CC[C@]12C	1.09
CCCNC(C)C(=O)Nc1c(C)csc1C(=O)OC (stereo not given)	0.453

CCCCC(=O)N(Cc1ccc(-c2ccccc2-c2nnn[nH]2)cc1)[C@H](C(=O)O)C(C)C has a reported growth inhibition of -2.21

CCOC(=O)c1c(C)n(C)c2ccc(O)cc12 has a reported growth inhibition of 0.475

NC[C@H]1O[C@H](O[C@H]2[C@H](O)[C@@H](O[C@H]3O[C@H](CO)[C@@H](O)[C@H](N)[C@H]3O)[C@H](N)C[C@@H]2N)[C@H](N)C[C@@H]1O has a reported growth inhibition of -1.1

CN(C)CCOc1ccc(/C(=C(/CCCl)c2ccccc2)c2ccccc2)cc1 has a reported growth inhibition of 2.43
